Assign pIC50 to each entry below.
STUDY TARGET: IDO1 (Homo sapiens)
Construct: BxPC3 cells were seeded in phenol red-free RPMI 1640 medium; endogenous in cells; host or cells: BxPC3 cells stimulated with IFN-γ (50 ng/mL)
PROTOCOL DESCRIPTION: Kyn assay in BxPC-3 cells (Kyn levels after IFN-γ and Trp)
Type: cell-based
PROTOCOL CONDITIONS: BxPC-3 cells incubated with IFN-γ, Trp and the compounds for 48 h; read-out: Kyn assay IC50 ± SD
pIC50: −log10 of the molar value.

Past entries and their recorded results:
COc1cc(C(C)(C)C(=O)O)ccc1S(=O)(=O)N1C[C@H]2C[C@H]3C[C@H](C3(C)C)[C@@]2(COC(=O)Nc2ccc(I)cc2)C1 :: > 6.70
C#Cc1ccc(NC(=O)OC[C@]23CN(S(=O)(=O)c4ccc(C5(C(F)(F)F)N=N5)cc4)C[C@H]2C[C@H]2C[C@@H]3C2(C)C)cc1 :: > 6.70

Could you now look at the following compound, please?
Name the recorded pIC50 for `CC(C)(C(=O)N1CCOCC1)c1ccc(S(=O)(=O)N2C[C@H]3C[C@H]4C[C@H](C4(C)C)[C@@]3(COC(=O)Nc3ccc(I)cc3)C2)cc1` . 5.00 to 5.30

* * *

STUDY TARGET: IDO1 (Homo sapiens)
Construct: BxPC3 cells were seeded in phenol red-free RPMI 1640 medium; endogenous in cells; host or cells: BxPC3 cells stimulated with IFN-γ (50 ng/mL)
PROTOCOL DESCRIPTION: Kyn assay in BxPC-3 cells (Kyn levels after IFN-γ and Trp)
Format: cell-based
PROTOCOL CONDITIONS: BxPC-3 cells incubated with IFN-γ, Trp and the compounds for 48 h; read-out: Kyn assay IC50 ± SD
VALUE KIND: IC50

CC1(C)[C@H]2C[C@@H]3CN(S(=O)(=O)c4ccc([Si](C)(C)C)cc4)C[C@]3(COC(=O)Nc3ccc(I)cc3)[C@@H]1C2 :: 200 to 1000 nM

The following compounds each have a reported value; give each one's IC50.
1. CC(C)(C)Cc1ccc(S(=O)(=O)N2C[C@H]3C[C@H]4C[C@H](C4(C)C)[C@@]3(COC(=O)Nc3ccc(I)cc3)C2)cc1
2. Cc1ccc(NC(=O)OC[C@]23CN(S(=O)(=O)C(C)C)C[C@H]2C[C@H]2C[C@@H]3C2(C)C)cc1
3. CC(C)(C)c1ccc(S(=O)(=O)N2C[C@H]3C[C@H]4C[C@H](C4(C)C)[C@@]3(COC(=O)Nc3ccc(C#CCCO)cc3)C2)cc1
4. COCCOCC(C)(C)c1ccc(S(=O)(=O)N2C[C@H]3C[C@H]4C[C@H](C4(C)C)[C@@]3(COC(=O)Nc3ccc(I)cc3)C2)cc1
5. CC(C)(C)c1ccc(S(=O)(=O)N2C[C@H]3C[C@H]4C[C@H](C4(C)C)[C@@]3(COC(=O)Nc3ccc(C#N)cc3)C2)cc1

["200 to 1000 nM", "1000 to 5000 nM", "1000 to 5000 nM", "< 200 nM", "1000 to 5000 nM"]

* * *

STUDY TARGET: IDO1 (Homo sapiens)
Construct: BxPC3 cells were seeded in phenol red-free RPMI 1640 medium; endogenous in cells; host or cells: BxPC3 cells stimulated with IFN-γ (50 ng/mL)
PROTOCOL DESCRIPTION: Kyn assay in BxPC-3 cells (Kyn levels after IFN-γ and Trp)
Format: cell-based
PROTOCOL CONDITIONS: BxPC-3 cells incubated with IFN-γ, Trp and the compounds for 48 h; read-out: Kyn assay IC50 ± SD
Assign IC50 to each entry below.

The following molecules each have a reported value; give each one's IC50.
1. Cc1ccc(NC(=O)OC[C@]23CN(S(=O)(=O)c4ccc(C5(C(F)(F)F)N=N5)cc4)C[C@H]2C[C@H]2C[C@@H]3C2(C)C)cc1 [compound 35]
2. CC(C)(C)c1ccc(S(=O)(=O)N2C[C@H]3C[C@H]4C[C@H](C4(C)C)[C@@]3(COC(=O)Nc3ccc(I)cc3)C2)c(I)c1 [compound 57]
3. CCc1ccc(NC(=O)OC[C@]23CN(S(=O)(=O)c4ccc(C(C)(C)C)cc4)C[C@H]2C[C@H]2C[C@@H]3C2(C)C)cc1 [compound 2]

1000 to 5000 nM
< 200 nM
1000 to 5000 nM

* * *

Assign IC50 to each entry below.
STUDY TARGET: IDO1 (Homo sapiens, UniProt P14902)
Construct: BxPC3 cells were seeded in phenol red-free RPMI 1640 medium; endogenous in cells; host or cells: BxPC3 cells stimulated with IFN-γ (50 ng/mL)
Sequence (P14902 whole entry): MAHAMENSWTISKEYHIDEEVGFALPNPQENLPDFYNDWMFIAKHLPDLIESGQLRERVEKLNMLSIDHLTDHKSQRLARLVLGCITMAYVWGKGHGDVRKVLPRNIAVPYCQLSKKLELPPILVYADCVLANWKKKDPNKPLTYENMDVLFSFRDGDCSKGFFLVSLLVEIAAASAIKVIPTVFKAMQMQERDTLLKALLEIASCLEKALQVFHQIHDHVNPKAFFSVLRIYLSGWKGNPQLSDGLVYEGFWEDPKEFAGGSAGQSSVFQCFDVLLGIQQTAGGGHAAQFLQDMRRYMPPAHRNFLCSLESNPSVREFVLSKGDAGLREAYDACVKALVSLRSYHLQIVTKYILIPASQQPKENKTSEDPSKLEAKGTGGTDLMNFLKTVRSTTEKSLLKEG
PROTOCOL DESCRIPTION: Kyn assay in BxPC-3 cells (Kyn levels after IFN-γ and Trp)
Assay type: cell-based
PROTOCOL CONDITIONS: BxPC-3 cells incubated with IFN-γ, Trp and the compounds for 48 h; read-out: Kyn assay IC50 ± SD

CN(C)C(=O)C(C)(C)c1ccc(S(=O)(=O)N2C[C@H]3C[C@H]4C[C@H](C4(C)C)[C@@]3(COC(=O)Nc3ccc(I)cc3)C2)cc1 :: 200 to 1000 nM
CN(C)CC(C)(C)c1ccc(S(=O)(=O)N2C[C@H]3C[C@H]4C[C@H](C4(C)C)[C@@]3(COC(=O)Nc3ccc(I)cc3)C2)cc1 :: 1000 to 5000 nM
CC(C)(C)c1ccc(S(=O)(=O)N2C[C@H]3C[C@H]4C[C@H](C4(C)C)[C@@]3(COC(=O)Nc3ccc(I)cc3)C2)cc1 :: < 200 nM

The following molecules each have a reported value; give each one's IC50.
1. Cc1ccc(NC(=O)OC[C@]23CN(S(=O)(=O)C4CCCCC4)C[C@H]2C[C@H]2C[C@@H]3C2(C)C)cc1
2. Cc1ccc(NC(=O)OC[C@]23CN(S(=O)(=O)c4ccc(C(C)(C)C)cc4)C[C@H]2C[C@H]2C[C@@H]3C2(C)C)c(C)c1
3. CC(C)(C)c1ccc(S(=O)(=O)N2C[C@H]3C[C@H]4C[C@H](C4(C)C)[C@@]3(COC(=O)Nc3ccc(I)cc3)C2)c(C2CC2)c1

1. 5000 to 10000 nM
2. 1000 to 5000 nM
3. < 200 nM

* * *

STUDY TARGET: recombinant human IDO1 (rhIDO1) (Homo sapiens)
Construct: Full-length rhIDO protein (1 µM) in 50 mM potassium phosphate buffer; GST (cleaved yes); made in house; host or cells: E. coli
Sequence (P14902 whole entry): as above
PROTOCOL DESCRIPTION: IDO1 enzymatic assay with recombinant protein, Kyn detection with p-DMAB
Type: biochemical
PROTOCOL CONDITIONS: in vitro inhibition at 59 uM; pre-incubated with compounds at 37°C for 40 min
Assign inhibition at 59 µM to each entry below.
Answers are plain numbers, in %.

Past entries and their recorded results:
C#Cc1ccc(NC(=O)OC[C@]23CN(S(=O)(=O)c4ccc(C(C)(C)C)cc4CC)C[C@H]2C[C@H]2C[C@@H]3C2(C)C)cc1 [compound 72] :: 62
Cc1cc(C(C)(C)C)ccc1S(=O)(=O)N1C[C@H]2C[C@H]3C[C@H](C3(C)C)[C@@]2(COC(=O)Nc2ccc(I)cc2)C1 [compound 52] :: 48

Name the recorded inhibition at 59 µM for CC(C)(CC(=O)O)c1ccc(S(=O)(=O)N2C[C@H]3C[C@H]4C[C@H](C4(C)C)[C@@]3(COC(=O)Nc3ccc(I)cc3)C2)cc1 [compound 63] . 67

* * *

STUDY TARGET: IDO1 (Homo sapiens)
Construct: BxPC3 cells were seeded in phenol red-free RPMI 1640 medium; endogenous in cells; host or cells: BxPC3 cells stimulated with IFN-γ (50 ng/mL)
PROTOCOL DESCRIPTION: Kyn assay in BxPC-3 cells (Kyn levels after IFN-γ and Trp);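 note: kyn levels expressed relative to DMSO-treated control cells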
Assay type: cell-based
PROTOCOL CONDITIONS: BxPC-3 cells incubated with IFN-γ, Trp and the compounds for 48 h; read-out: Kyn assay IC50 ± SD
pIC50: −log10 of the molar value.
Assign pIC50 to each entry below.

Past entries and their recorded results:
Cc1ccccc1S(=O)(=O)N1C[C@H]2C[C@H]3C[C@H](C3(C)C)[C@@]2(COC(=O)Nc2ccc(I)cc2)C1 :: 6.00 to 6.70
CC(C)(C)c1ccc(S(=O)(=O)N2C[C@H]3C[C@H]4C[C@H](C4(C)C)[C@@]3(COC(=O)Nc3cccc(Br)c3)C2)cc1 :: 5.00 to 5.30
COC(=O)C(C)(C)c1ccc(S(=O)(=O)N2C[C@H]3C[C@H]4C[C@H](C4(C)C)[C@@]3(COC(=O)Nc3ccc(I)cc3)C2)c(OC)c1 :: > 6.70
CC1(C)[C@H]2C[C@@H]3CN(S(=O)(=O)c4ccc(C5CCCCC5)cc4)C[C@]3(COC(=O)Nc3ccc(I)cc3)[C@@H]1C2 :: 5.30 to 6.00
CC(C)(C)c1ccc(S(=O)(=O)N2C[C@H]3C[C@H]4C[C@H](C4(C)C)[C@@]3(COC(=O)Nc3ccccc3)C2)cc1 :: 5.00 to 5.30

Could you now look at the following molecule, please?
Name the recorded pIC50 for `CC1(C)[C@H]2C[C@@H]3CN(S(=O)(=O)c4ccc5ccccc5c4)C[C@]3(COC(=O)Nc3ccc(I)cc3)[C@@H]1C2` . 6.00 to 6.70
